System name: UniProt P00533
Sequence (P00533 25-1210): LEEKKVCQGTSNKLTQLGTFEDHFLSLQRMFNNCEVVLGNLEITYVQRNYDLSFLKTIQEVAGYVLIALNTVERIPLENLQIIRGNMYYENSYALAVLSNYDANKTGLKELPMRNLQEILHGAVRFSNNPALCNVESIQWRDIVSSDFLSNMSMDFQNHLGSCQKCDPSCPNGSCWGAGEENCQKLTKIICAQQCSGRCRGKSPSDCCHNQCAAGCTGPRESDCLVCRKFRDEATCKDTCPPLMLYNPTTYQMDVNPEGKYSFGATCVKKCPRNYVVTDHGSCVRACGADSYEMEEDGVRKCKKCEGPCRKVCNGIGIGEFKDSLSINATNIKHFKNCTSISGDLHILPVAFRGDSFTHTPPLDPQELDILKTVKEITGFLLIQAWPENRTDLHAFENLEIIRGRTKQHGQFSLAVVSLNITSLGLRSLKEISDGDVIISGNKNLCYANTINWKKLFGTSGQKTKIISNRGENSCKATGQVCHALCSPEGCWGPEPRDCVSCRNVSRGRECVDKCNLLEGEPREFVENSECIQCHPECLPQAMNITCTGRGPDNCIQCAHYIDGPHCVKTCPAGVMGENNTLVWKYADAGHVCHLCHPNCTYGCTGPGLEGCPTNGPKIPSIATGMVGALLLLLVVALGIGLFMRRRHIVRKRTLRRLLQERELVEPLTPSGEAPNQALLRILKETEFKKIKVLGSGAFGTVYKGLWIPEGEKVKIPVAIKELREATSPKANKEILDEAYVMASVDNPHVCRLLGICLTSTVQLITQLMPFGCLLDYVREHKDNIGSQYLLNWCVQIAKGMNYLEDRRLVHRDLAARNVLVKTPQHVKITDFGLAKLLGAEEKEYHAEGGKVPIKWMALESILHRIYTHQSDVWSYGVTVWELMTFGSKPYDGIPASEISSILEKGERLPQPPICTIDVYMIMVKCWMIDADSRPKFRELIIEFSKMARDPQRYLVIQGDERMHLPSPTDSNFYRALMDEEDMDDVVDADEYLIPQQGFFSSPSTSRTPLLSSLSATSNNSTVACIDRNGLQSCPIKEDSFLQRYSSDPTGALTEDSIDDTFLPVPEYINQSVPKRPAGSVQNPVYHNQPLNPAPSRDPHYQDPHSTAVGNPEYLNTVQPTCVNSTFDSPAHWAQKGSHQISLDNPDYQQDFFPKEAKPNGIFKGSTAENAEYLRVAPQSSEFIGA
Value kind: IC50

The compound O=C(Cc1ccccc1)N1CCc2c([nH]c3ccc(F)cc23)C1 showed IC50 equal to ~0.043 µM
